Where these numbers come from: ChEMBL document CHEMBL1142706

Target: Cytochrome P450 11B2, mitochondrial (Homo sapiens)
Sequence (P19099 whole entry): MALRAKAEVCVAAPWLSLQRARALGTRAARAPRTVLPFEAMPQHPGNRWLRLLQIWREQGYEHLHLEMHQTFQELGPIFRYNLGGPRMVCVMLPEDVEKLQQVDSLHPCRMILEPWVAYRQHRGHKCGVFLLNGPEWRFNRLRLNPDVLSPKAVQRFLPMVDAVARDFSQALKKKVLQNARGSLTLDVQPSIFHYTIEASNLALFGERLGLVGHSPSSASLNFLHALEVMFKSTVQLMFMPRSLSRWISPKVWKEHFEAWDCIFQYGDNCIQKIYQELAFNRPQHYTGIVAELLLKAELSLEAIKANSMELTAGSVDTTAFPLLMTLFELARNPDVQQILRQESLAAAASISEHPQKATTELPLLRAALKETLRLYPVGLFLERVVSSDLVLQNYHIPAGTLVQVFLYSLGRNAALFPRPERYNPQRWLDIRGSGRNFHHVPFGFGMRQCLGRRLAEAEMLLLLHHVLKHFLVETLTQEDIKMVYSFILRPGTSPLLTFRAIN
Experiment: In vitro inhibitory concentration against human CYP11B2 expressed in V79MZh hamster fibroblasts incubated with 100 nM of substrate deoxy-corticosterone in presence of the compound
Test readout: IC50 (nM)

A selection of reference data follows.
Compound	IC50 (nM)
C(=C1/CC(c2ccccc2)c2ccccc21)/c1cccnc1 (configuration not stated)	3
COc1ccc2c(c1)CC/C2=C\c1ccncc1	59
Fc1ccc2c(c1)CC/C2=C\c1cncnc1	27
C(=C(c1ccccc1)c1ccccc1)c1cccnc1	9
Brc1ccc2c(c1)CC/C2=C/c1ccncc1	56

(A) C(=C1/CCc2ccccc21)/c1ccncc1
(B) C(=C1\CCc2ccccc21)/c1ccncc1
So which one has the bigger IC50 here, A or B ? Give the chosen item's label as your response.
B

* * *

target: Cytochrome P450 11B1, mitochondrial (Homo sapiens, UniProt P15538); assay: In vitro inhibitory concentration against human CYP11B1 expressed in V79 MZh hamster fibroblasts incubated with 100 nM of substrate deoxy-corticosterone in presence of the compound
Sequence (P15538 whole entry): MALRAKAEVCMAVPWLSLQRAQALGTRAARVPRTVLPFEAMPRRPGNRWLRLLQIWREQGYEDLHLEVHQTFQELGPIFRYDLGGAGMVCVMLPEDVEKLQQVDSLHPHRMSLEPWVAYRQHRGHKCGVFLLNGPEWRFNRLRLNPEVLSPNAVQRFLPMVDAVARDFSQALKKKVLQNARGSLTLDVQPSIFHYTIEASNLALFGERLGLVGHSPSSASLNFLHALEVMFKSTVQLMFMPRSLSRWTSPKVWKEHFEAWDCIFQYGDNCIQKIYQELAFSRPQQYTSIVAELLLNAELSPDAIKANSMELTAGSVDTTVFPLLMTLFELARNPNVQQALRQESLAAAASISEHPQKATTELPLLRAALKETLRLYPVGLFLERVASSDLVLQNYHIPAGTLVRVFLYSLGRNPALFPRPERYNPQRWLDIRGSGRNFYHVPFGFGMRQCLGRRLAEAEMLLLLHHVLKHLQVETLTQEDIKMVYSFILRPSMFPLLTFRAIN
pIC50: −log10 of the molar value.
Test readout: pIC50

Brc1ccc2c(c1)CC/C2=C\c1ccncc1 5.58
C(=C1/CCCc2ccccc21)/c1ccncc1 6.84

(I) C(=C1\CCc2ccccc21)/c1ccncc1
(II) C(=C1\CCc2ccccc21)/c1cccnc1
So which one has the bigger pIC50 here, I or II ? Give the chosen item's label as your response.
II

* * *

organism: Homo sapiens; test: In vitro IC50 ratio against human CYP11B1 to that of human CYP11B2
Test readout: Selectivity ratio

A selection of reference data follows.
Clc1ccc2c(c1)CC/C2=C/c1cccnc1 3.7
C(=C1\CCc2ccccc21)/c1ccncc1 1.4
COc1ccc2c(c1)CCC/C2=C\c1cccnc1 15.8
CCOc1ccc2c(c1)CC/C2=C/c1cccnc1 10.9
COc1ccc2c(c1)CCC/C2=C/c1cccnc1 0.2

(a) C(=C1/CCCc2ccccc21)/c1cccnc1
(b) C(=C1\CCc2ccccc21)/c1cccnc1
So which one has the bigger Selectivity ratio here, a or b ? Give the chosen item's label as your response.
a

(I) Fc1cccc2c1CC/C2=C\c1cccnc1
(II) Fc1ccc2c(c1)CC/C2=C/c1cccc2cnccc12
Of I and II , whose reported Selectivity ratio is numerically smaller? Give the chosen item's label as your response.
II
(II: 14.4, I: 36.9)

(I) Brc1ccc2c(c1)CC/C2=C\c1cccnc1
(II) CCOc1ccc2c(c1)CC/C2=C\c1cccnc1
Of I and II , whose reported Selectivity ratio is numerically smaller? Give the chosen item's label as your response.
II
(II: 30, I: 52.4)
